The origin of these recorded values is patent US9321756B2.

- target_system: full length recombinant Pim-2 (Homo sapiens (Human), UniProt Q9P1W9)
- Sequence (Q9P1W9 whole entry): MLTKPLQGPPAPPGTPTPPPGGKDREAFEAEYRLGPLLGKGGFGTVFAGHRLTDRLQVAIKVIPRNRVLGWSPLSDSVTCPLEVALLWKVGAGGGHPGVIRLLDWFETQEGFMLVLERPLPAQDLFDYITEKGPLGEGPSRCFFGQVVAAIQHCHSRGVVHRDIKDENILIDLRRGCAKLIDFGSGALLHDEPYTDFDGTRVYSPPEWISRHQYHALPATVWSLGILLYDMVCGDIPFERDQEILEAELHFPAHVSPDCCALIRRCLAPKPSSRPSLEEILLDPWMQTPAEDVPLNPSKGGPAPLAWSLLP
- measurement_protocol: Pim enzyme assay (HTRF, phosphorylation of biotinylated-BAD (S112) peptide), Pim-2
- Type: biochemical
- condition_set: Pim-2 enzyme assay; read-out: Pim2_IC50
Threshold-based label: IC50 under 40 nM gives satisfied, IC50 not under 40 nM gives not satisfied.

Would you please look over these solved cases?
compound: CC(C)Oc1cccc(-c2c[nH]c3ccc(-c4noc(N)n4)cc23)n1
assigned_category: not satisfied
--
compound: Nc1nnc(-c2ccc3[nH]cc(-c4cnc5ccccc5c4)c3c2)s1
assigned_category: not satisfied
--
compound: CC(C)Nc1ccnc(-c2c[nH]c3ccc(-c4nnc(N)o4)cc23)n1
assigned_category: satisfied
--
compound: Nc1nnc(-c2ccc3[nH]cc(-c4cccc(OC5CCCCC5)n4)c3c2)s1
assigned_category: not satisfied
--
compound: CC(C)Nc1nnc(-c2ccc3[nH]cc(-c4nccc(OC(C)C)n4)c3c2)o1
assigned_category: satisfied

Inquiry: Below 40 nM on IC50? Entry CC1COCCN1c1nnc(-c2ccc3[nH]cc(-c4cncc(C5CC5)n4)c3c2)o1 (stereo in doubt)
Reply text: not satisfied

Inquiry: And what about the compound `CC(C)Oc1cc(F)cc(-c2c[nH]c3ccc(-c4nnc(N)o4)cc23)c1` ?
Reply text: not satisfied

Inquiry: Same again, this time with `CC(C)Oc1cncc(-c2c[nH]c3ccc(-c4nnc(N)s4)cc23)n1`
Reply text: satisfied

Inquiry: Now consider `Nc1nnc(-c2ccc3[nH]cc(-c4cccc(-n5ccccc5=O)n4)c3c2)s1` .
Reply text: not satisfied

Inquiry: Can you handle `CN1CCN(c2cccc(-c3c[nH]c4ccc(-c5nnc(N)s5)cc34)n2)CC1=O` next?
Reply text: not satisfied

Inquiry: Entry to check: `COc1ccc(-c2c[nH]c3ccc(-c4nnc(N)s4)cc23)nc1OC`
Reply text: not satisfied

Inquiry: Consider next the compound CN1CCCC(Oc2ccnc(-c3c[nH]c4ccc(-c5nnc(N)o5)cc34)n2)C1 (centres unmarked) in the same way.
Reply text: satisfied

Inquiry: What do we get for `Nc1cncc(-c2c[nH]c3ccc(-c4nnc(N)s4)cc23)n1` ?
Reply text: not satisfied

Inquiry: What about Fc1ccccc1-c1c[nH]c2ccc(-c3nnc(NCC[C@H]4CCCCN4)s3)cc12 (stereo in doubt) ?
Reply text: not satisfied

Inquiry: How about this compound: `c1cc2[nH]cc(-c3cncc(C4CC4)n3)c2cc1-c1nnc(NC2CC2)o1`
Reply text: satisfied

Inquiry: And the next one, `Nc1ncc(-c2ccc3[nH]cc(-c4cccc(N5CCOCC5)n4)c3c2)s1` ?
Reply text: not satisfied

Inquiry: Entry CC(Nc1nnc(-c2ccc3[nH]cc(-c4ncccn4)c3c2)o1)c1ccccc1 (centres unmarked) please
Reply text: not satisfied

Inquiry: Query `CC(=O)Nc1nc(-c2ccc3[nH]cc(-c4cncc(OC(C)C)n4)c3c2)no1` next
Reply text: not satisfied

* * *

- target_system: full length recombinant Pim-1 (Homo sapiens (Human))
- measurement_protocol: Pim enzyme assay (HTRF, phosphorylation of biotinylated-BAD (S112) peptide), Pim-1
- Format: biochemical
- condition_set: HTRF, 10-point curve, high dose 1 uM, 2 h at RT; read-out: Pim_1_IC50
Would you kindly list IC50 for each of these compounds?

Some entries whose results are on file:
compound: CC(C)Nc1nnc(-c2ccc3[nH]cc(-c4cncc(C(=O)N(C)C)c4)c3c2)o1
IC50: > 1 µM

compound: CC(C)Nc1nnc(-c2ccc3[nH]cc(-c4ncc(C(=O)NC5CC5)s4)c3c2)o1
IC50: 0.259 µM

compound: CC(C)Nc1nnc(-c2ccc3[nH]cc(-c4ncc(C(N)=O)c(C5CC5)n4)c3c2)o1
IC50: 0.00119 µM

compound: CC(C)Nc1nnc(-c2ccc3[nH]cc(-c4nccc(C(=O)NC5CC5)n4)c3c2)o1 [Example 283, 2,2,2-trifluoroacetate]
IC50: 0.517 µM

// for each compound in input: emit IC50
1. CC(C)Nc1nnc(-c2ccc3[nH]cc(-c4cc(C(=O)N(C)C)ccc4F)c3c2)o1
2. CC(C)(C)Nc1nnc(-c2ccc3[nH]cc(-c4ncc(C(N)=O)s4)c3c2)o1
3. CC(C)Nc1nnc(-c2ccc3[nH]cc(-c4cccc(C(=O)N(C)C)n4)c3c2)o1
4. CC(C)Nc1nnc(-c2ccc3[nH]cc(-c4cccc(C(=O)NC5CC5)n4)c3c2)o1
5. CNC(=O)c1ccc(-c2c[nH]c3ccc(-c4nnc(NC(C)C)o4)cc23)nc1
6. CC(C)Nc1nnc(-c2ccc3[nH]cc(NC(=O)c4ccncc4)c3c2)o1
7. CC(C)Nc1nnc(-c2cc3c(-c4nccc(C5CC5)n4)c[nH]c3cc2F)o1

Reply text:
0.291 µM
0.0582 µM
0.496 µM
0.664 µM
0.578 µM
0.07 µM
0.00238 µM

// for each compound in input: emit IC50
1. CNC(=O)c1cncc(-c2c[nH]c3ccc(-c4nnc(NC(C)C)o4)cc23)c1
2. CS(=O)(=O)c1ccc(-c2c[nH]c3ccc(-c4nnc(N)o4)cc23)nc1 [Example 284, 2,2,2-trifluoroacetate]

Reply text:
0.713 µM
0.515 µM

* * *

- target_system: full length recombinant Pim-1 (Homo sapiens (Human), UniProt P11309)
- Sequence (P11309 whole entry): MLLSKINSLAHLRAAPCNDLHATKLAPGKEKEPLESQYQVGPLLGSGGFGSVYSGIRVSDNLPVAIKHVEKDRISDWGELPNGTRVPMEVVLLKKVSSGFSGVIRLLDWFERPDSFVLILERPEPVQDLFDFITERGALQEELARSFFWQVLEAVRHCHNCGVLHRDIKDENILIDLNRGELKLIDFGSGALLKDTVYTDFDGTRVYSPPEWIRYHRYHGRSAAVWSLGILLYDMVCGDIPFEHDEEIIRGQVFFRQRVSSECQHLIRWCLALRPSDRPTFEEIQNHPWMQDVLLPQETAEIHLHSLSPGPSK
- measurement_protocol: Pim enzyme assay (HTRF, phosphorylation of biotinylated-BAD (S112) peptide), Pim-1
- Format: biochemical
- condition_set: Pim-1 enzyme assay; read-out: Pim_1_IC50
Would you kindly list IC50 for each of these molecules?
Answers are plain numbers, in nM.

// input: 5 molecules below; output: IC50 for each
1. CC(C)Nc1nnc(-c2ccc3[nH]cc(-c4cncc(C5CC5)n4)c3c2)o1
2. c1cc(-c2nnc(-c3ccc4[nH]cc(-c5cncc(C6CC6)n5)c4c3)o2)[nH]n1 [Example 39, 2,2,2-trifluoroacetate]
3. CC(C)Oc1ccc(F)c(-c2c[nH]c3ccc(-c4nnc(N)o4)nc23)c1
4. CC(Oc1cncc(-c2c[nH]c3ccc(-c4nnc(N)s4)cc23)n1)C(F)(F)F (stereo not drawn)
5. CC(C)Oc1cccc(-c2c[nH]c3ccc(-c4nnco4)cc23)n1

Reply text:
1: 1.39; 2: 51.4; 3: 22.8; 4: 24.5; 5: 24.8

* * *

- target_system: full length recombinant Pim-3 (Homo sapiens (Human), UniProt Q86V86)
- measurement_protocol: Pim enzyme assay (HTRF, phosphorylation of biotinylated-BAD (S112) peptide), Pim-3
- Type: biochemical
- condition_set: Pim-3 enzyme assay; read-out: Pim3 IC50
Answer each item with its documented pIC50.
Answers are plain numbers, as −log10 of the molar value.

compound: COc1cc(-c2c[nH]c3ccc(-c4nnc(N)s4)cc23)nc(OC)n1 [Example 202]
pIC50: 7.95
//
compound: Cc1nccn1-c1cccc(-c2c[nH]c3ccc(-c4nnc(N)s4)cc23)n1 [Example 169]
pIC50: 7.93

Please turn your attention to the following entry.
Inquiry: Requested field: pIC50. Item: Nc1nnc(-c2ccc3[nH]cc(-c4nccc(N5CCOCC5)n4)c3c2)s1 [Example 11]
Reply text: 8.11

* * *

- target_system: full length recombinant Pim-2 (Homo sapiens (Human))
- measurement_protocol: Pim enzyme assay (HTRF, phosphorylation of biotinylated-BAD (S112) peptide), Pim-2
- Type: biochemical
- condition_set: Pim-2 enzyme assay; read-out: Pim2_IC50
pIC50: −log10 of the molar value.
Binary classification by pIC50, with 7 as an inclusive lower bound for Y; all other cases are N.

molecule: Nc1nnc(-c2ccc3[nH]cc(-c4nccc(N5CCOCC5)n4)c3c2)s1
assigned_category: Y

molecule: CNc1nnc(-c2ccc3[nH]cc(-c4ccc(F)cc4F)c3c2)s1
assigned_category: N

molecule: c1cc2[nH]cc(-c3cncc(C4CC4)n3)c2cc1-c1nnc(NC2COC2)o1
assigned_category: Y

molecule: CC(C)Nc1cncc(-c2c[nH]c3ccc(-c4nnc(N)s4)cc23)n1
assigned_category: Y

molecule: Nc1nnc(-c2ccc3[nH]cc(-c4cncc(C5CC5)n4)c3c2)o1
assigned_category: Y

--- query ---
Inquiry: Reported pIC50 at or above 7? CC(Oc1cncc(-c2c[nH]c3ccc(-c4nnc(N)s4)cc23)n1)C(F)(F)F (centres unmarked)
Reply text: Y

* * *

- target_system: full length recombinant Pim-1 (Homo sapiens (Human), UniProt P11309)
- measurement_protocol: Pim enzyme assay (HTRF, phosphorylation of biotinylated-BAD (S112) peptide), Pim-1
- Assay type: biochemical
- condition_set: Pim-1 enzyme assay; read-out: Pim_1_IC50
I'd appreciate it if you could supply pIC50 values for the items below.
Give bare numbers, as −log10 of the molar value.

Would you please look over these solved cases?
molecule: CC(C)Nc1cncc(-c2c[nH]c3ccc(-c4noc(N)n4)cc23)n1
observed_result: 7.52

molecule: CNc1nnc(-c2ccc3[nH]cc(-c4ccccc4)c3c2)s1
observed_result: 5.94

molecule: Nc1nnc(-c2ccc3[nH]cc(-c4nccc(-c5ccccc5)n4)c3c2)o1
observed_result: 8.16

molecule: CC(C)c1ccnc(-c2c[nH]c3ccc(-c4nnc(NCC#N)o4)cc23)n1
observed_result: 8.42

molecule: Nc1nnc(-c2ccc3[nH]cc(-c4cncc(O[C@@H]5CCCNC5)n4)c3c2)o1
observed_result: 8.17

Please state pIC50 for every molecule in the list that follows.
1. Nc1nnc(-c2ccc3[nH]cc(-c4cncc(NC5CCCC5)n4)c3c2)o1
2. Nc1nnc(-c2ccc3[nH]cc(-c4cnn(CCN5CCOCC5)c4)c3c2)o1

Reply text:
1: 9.00; 2: 6.99

# per-item lookup of pIC50; items listed below
1. CC1COCCN1c1nnc(-c2ccc3[nH]cc(-c4cncc(C5CC5)n4)c3c2)o1 (stereo in doubt)
2. Nc1nnc(-c2ccc3[nH]cc(-c4cccc(N5CCCCC5=O)n4)c3c2)s1

Reply text:
[7.79, 7.01]

List pIC50 for every entry below, keeping the order given.
1. CC(C)(Nc1nnc(-c2ccc3[nH]cc(-c4cncc(C5CC5)n4)c3c2)o1)c1ccccc1
2. CC(=O)Nc1cccc(CNc2nnc(-c3ccc4[nH]cc(-c5ccccc5F)c4c3)s2)c1

Reply text:
1. 7.24
2. 6.51
